# Test Description: NCI Yeast Anticancer Drug Screen. Data for the sgs1 mgt1 strain (AID 161);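 further: 0% = growth of cultures given vehicle only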
# Measurement Parameters: S. cerevisiae sgs1 mgt1 strain, at 50.0 µM, active compounds read high
This is part of a sample that, as a whole, favours compounds with a hit. Of some 79,000 tested, about 15% had one in any assay.
Readout: growth inhibition (%)
Your answer should be a plain number; it is taken to be in %.

Enquiry: Return reported growth inhibition. Input compound: CCC[CH2][Sn]([CH2]CCC)([O]C(=O)c1cccc(F)c1F)[O]C(=O)c1cccc(F)c1F
Return: 86.5

Enquiry: Return reported growth inhibition. Input compound: BrC(Br)=C1C(=C(Br)Br)C(Br)C1Br (stereo not given)
Return: 83.8

Enquiry: Return reported growth inhibition. Input compound: Cc1cc(O)c(/C=N/C(=S)Nc2ccc(S(N)(=O)=O)cc2)c(=O)o1
Return: -10.2

Enquiry: Return reported growth inhibition. Input compound: O=C(n1c2ccccc2c2n[nH]c(=S)nc21)C(F)(F)F
Return: 83.5

Enquiry: Return reported growth inhibition. Input compound: COc1ccc2cc(C3CCCC3(C)CC(=O)O)ccc2c1 (stereo not given)
Return: 62.1

Enquiry: Return reported growth inhibition. Input compound: CCCC(CC)c1cc(O)c(O)cc1C(CC)CCC (stereo not given)
Return: 43.9

Enquiry: Return reported growth inhibition. Input compound: CNC1=C2NC(=O)/C(C)=C\C=C\C(C)C(O)C(C)C(O)C(C)C(OC(C)=O)C(C)C(OC)/C=C/OC3(C)Oc4c(C)c(O)c(c(c4C3=O)C1=O)C2=O (stereo not given)
Return: 45.7

Enquiry: Return reported growth inhibition. Input compound: Cc1cc(N(CCOS(C)(=O)=O)CCOS(C)(=O)=O)ccc1C=Nc1cccc(Cl)c1
Return: 70.8

Enquiry: Return reported growth inhibition. Input compound: CCC(C)Sc1nc2c([nH]1)c(=S)n(C)c(=O)n2C (stereo not given)
Return: 96.7

Enquiry: Return reported growth inhibition. Input compound: COc1cc2c(cc1OC)C(=O)C(C)(c1ccccc1)NC2 (stereo not given)
Return: 92.4

----------
# Test Description: NCI Yeast Anticancer Drug Screen. Data for the sgs1 mgt1 strain (AID 161);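 further: 0% = growth of cultures given vehicle only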
# Measurement Parameters: S. cerevisiae sgs1 mgt1 strain, at 5.0 µM (retest, dose inferred, filed as 0.5)
About 79,000 compounds went through this panel and 15% of them were active in at least one assay; those are over-represented in the sample as a whole. Active and inactive are the calls of the source. Rule as the data show it: active = growth inhibition above about 70%; inactive = the rest.
Returns: one label drawn from active, inactive

Enquiry: Which outcome was assigned to Clc1ccccc1/C=C/c1ccnc2ccccc12 in this test?
Return: inactive

Enquiry: Which outcome was assigned to O=C1C(=O)c2ccccc2C(O)=C1C(c1ccccc1)c1ccccc1 in this test?
Return: inactive

Enquiry: Which outcome was assigned to CCCCCCCCN(CCCCCCCC)Cc1ccc(Br)cc1 in this test?
Return: active

Enquiry: Which outcome was assigned to Cc1nc2c(cnn2-c2ccccc2)c(=O)o1 in this test?
Return: inactive

Enquiry: Which outcome was assigned to COc1ccc(NC(=S)N/N=C/c2cccc(C)n2)cc1 in this test?
Return: inactive

Enquiry: Which outcome was assigned to CCCCCCCCCCCCCCCCOCC(Cl)COP(=O)(O)OP(=O)(O)OCC1OC(n2cc(C)c(=O)[nH]c2=O)CC1O (stereo not drawn) in this test?
Return: active

Enquiry: Which outcome was assigned to COc1ccc(/C=C2\N=C(c3ccco3)OC2=O)cc1Br in this test?
Return: inactive

Enquiry: Which outcome was assigned to COC1(OC)C(C#N)(C#N)C2(C(=O)Nc3ccccc32)C1(OC)OC (stereo not drawn) in this test?
Return: inactive

Enquiry: Which outcome was assigned to CCCCNc1ccc(C(=O)OC2CCN(C)CC2)c(Cl)c1 in this test?
Return: active

Enquiry: Which outcome was assigned to COc1ccc2nc(N/N=C/c3ccccn3)cc(C)c2c1 in this test?
Return: inactive

Enquiry: Which outcome was assigned to NC(=S)Nc1ccccc1O in this test?
Return: inactive

Enquiry: Which outcome was assigned to Cn1c(=O)cc[nH]c1=O in this test?
Return: inactive

Enquiry: Which outcome was assigned to COC(=O)C1(Cc2ccc(C)cc2)Cc2c(C)cccc2C1=O (stereo not drawn) in this test?
Return: inactive

----------
# Test Description: NCI Yeast Anticancer Drug Screen. Data for the rad50 strain (AID 155);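 further: 0% = growth of vehicle-only cultures of the same strain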
# Measurement Parameters: S. cerevisiae rad50 strain growth inhibition; at 50.0 µM (retest, dose inferred, filed as 5.0)
This is part of a sample that, as a whole, favours compounds with a hit. Of some 79,000 tested, about 15% had one in any assay. The source made the active and inactive calls. Cut-off read from the data, not from the text of the source: active = growth inhibition above about 70%; inactive = the rest.
Returns: one label drawn from label 1 (active), label 0 (inactive)

Enquiry: Which outcome was assigned to CC(=O)OCCC1=CCC2CC1C2(C)C (stereo not given) in this test?
Return: label 0

Enquiry: Which outcome was assigned to O=C1c2ccc(Cl)cc2C(=O)c2cc(Cl)ccc21 in this test?
Return: label 1

Enquiry: Which outcome was assigned to CCCC(CC)c1cc(O)c(O)cc1C(CC)CCC (stereo not given) in this test?
Return: label 0

Enquiry: Which outcome was assigned to CCCOC(=O)CCCC(=O)N(CC)CC in this test?
Return: label 0

Enquiry: Which outcome was assigned to CN(C)CC/C(=N\Nc1ccc([N+](=O)[O-])cc1)c1ccccc1 in this test?
Return: label 0

----------
# Test Description: NCI Yeast Anticancer Drug Screen. Data for the cln2 rad14 strain (AID 165);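 further: 0% = growth equal to vehicle treated cultures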
# Measurement Parameters: S. cerevisiae cln2 rad14 strain, at 50.0 µM
The panel holds about 79,000 compounds, 15% with a hit somewhere; the sample as a whole holds those more often. The source made the active and inactive calls. Rule as the data show it: active = growth inhibition above about 70%; inactive = the rest.
Returns: one label drawn from Y for active, N for inactive

Enquiry: Which outcome was assigned to CCOC(=O)N/N=C/c1ccc(N(C)CCC#N)cc1 in this test?
Return: N

Enquiry: Which outcome was assigned to CC(C)(C)C(=O)OC(N)/C=C/c1ccccc1 (configuration not stated) in this test?
Return: N

Enquiry: Which outcome was assigned to CCOc1ccc2nc3cc(Cl)ccc3[n+](C)c2c1 in this test?
Return: Y

Enquiry: Which outcome was assigned to CCCCCCCCCCSC(=NCC)NCC in this test?
Return: Y

Enquiry: Which outcome was assigned to CC(=O)N1C=C2CCC3c4ccccc4NC3C2CC1 (configuration not stated) in this test?
Return: N

Enquiry: Which outcome was assigned to CCCCCCCCc1ccc2c3ccccc3c3ccccc3c2c1 in this test?
Return: N

Enquiry: Which outcome was assigned to c1cc2c(cc1CCCCCCCCCCc1ccc3c(c1)CCC3)CCC2 in this test?
Return: Y

----------
# Test Description: NCI Yeast Anticancer Drug Screen. Data for the bub3 strain (AID 167)
# Measurement Parameters: S. cerevisiae bub3 mutant strain, at 50.0 µM (retest, dose inferred, filed as 5.0), active compounds read high
The panel holds about 79,000 compounds, 15% with a hit somewhere; the sample as a whole holds those more often.
Could you please report measured growth inhibition for the items listed next?
Your answer should be a plain number; it is taken to be in %.

Enquiry: Return reported growth inhibition. Input compound: BrC(Br)=C1C(=C(Br)Br)C(Br)C1Br (configuration not stated)
Return: 66

Enquiry: Return reported growth inhibition. Input compound: O=C1CSC(=S)N1c1ccc(F)cc1F
Return: 84

Enquiry: Return reported growth inhibition. Input compound: CC(c1ccc2cccc(F)c2c1)c1ccccc1C(=O)O (configuration not stated)
Return: 97

Enquiry: Return reported growth inhibition. Input compound: c1ccc2nc3ccccc3nc2c1
Return: 45

Enquiry: Return reported growth inhibition. Input compound: O=C(CNC(=O)OCc1ccccc1)NNc1ccccc1Cl
Return: 96

Enquiry: Return reported growth inhibition. Input compound: Cc1c2cnccc2c(C)c2c1c1ccccc1n2CCCN
Return: 35

Enquiry: Return reported growth inhibition. Input compound: O=C1CSC(c2ccc([N+](=O)[O-])cc2)N1c1ccc(-c2ccc(-n3c(-c4ccccc4)nc4ccccc4c3=O)cc2)cc1 (configuration not stated)
Return: 95

Enquiry: Return reported growth inhibition. Input compound: COC(=O)C1=C(C)NC(C)=C(C(=O)OC)C1c1ccc(NCc2ccccc2)c([N+](=O)[O-])c1
Return: 68

Enquiry: Return reported growth inhibition. Input compound: CC(C)CCCOC(=O)c1cc([N+](=O)[O-])cc([N+](=O)[O-])c1
Return: 24

Enquiry: Return reported growth inhibition. Input compound: CCCC(O)[C@@]1(CC)CC(C)C(O)(C2(C)C[C@H](C)[C@@H](C(CC)C(=O)C(C)[C@@H](O)[C@H](C)C3OC(O)(C(CC)C(=O)O)[C@@H](C)C(O)C3CC)O2)O1 (some centres not stated)
Return: -14

Enquiry: Return reported growth inhibition. Input compound: O=C(OC1CC2CC1C1CC=CC21)c1ccccc1 (configuration not stated)
Return: 68

Enquiry: Return reported growth inhibition. Input compound: Cc1csc2c1C(=O)c1ccsc1C2=O
Return: 98

Enquiry: Return reported growth inhibition. Input compound: CC(=O)Nc1ccc(C#N)c2ccccc12
Return: 44

Enquiry: Return reported growth inhibition. Input compound: O=C1C=C(c2ccccc2)O/C1=C/C(=O)c1ccc(Cl)cc1
Return: 16

Enquiry: Return reported growth inhibition. Input compound: CCCCCCCCCCCCC1N=C(N)N2CCCC2=C1C(=O)OC (configuration not stated)
Return: 99

Enquiry: Return reported growth inhibition. Input compound: CCCCc1cc2c(cc1O)CCC1C2CC[C@@]2(C)C1CC[C@@H]2O (some centres not stated)
Return: 96

Enquiry: Return reported growth inhibition. Input compound: COC(=O)C1C(O)C(C)C(=O)C(C)/C=C\C=C(C)C(=O)Nc2c(C)c(OC(C)=O)c3c(c2O)C(=O)C(C)=C2OCOC(=C23)C(C)=CC(C)(O)C(O)C(C)C1O (configuration not stated)
Return: 76

Enquiry: Return reported growth inhibition. Input compound: CC(=O)O/C=C1\c2ccccc2CCC1c1ccc2ccccc2c1 (configuration not stated)
Return: 4

Enquiry: Return reported growth inhibition. Input compound: O=C(O)c1ccc(N=CC2CO2)cc1 (configuration not stated)
Return: 98

Enquiry: Return reported growth inhibition. Input compound: CC(=O)c1cccc(NC(=O)C(=O)NNc2n[nH]c(=S)n2N)c1
Return: 95

Enquiry: Return reported growth inhibition. Input compound: COc1ccc(-c2nc3c(C(=O)NCCN(C)C)cccc3c3ccccc23)cc1
Return: 54

Enquiry: Return reported growth inhibition. Input compound: CSc1nc2c(c(=O)[nH]1)C1C=C(C)CCC1C(C)(C)C2 (configuration not stated)
Return: 97

Enquiry: Return reported growth inhibition. Input compound: O=C(/C=C/c1cccc2ccccc12)c1cccc([N+](=O)[O-])c1
Return: -12

Enquiry: Return reported growth inhibition. Input compound: CC(=O)Nc1c([N+](=O)[O-])cc2c3c(cccc13)C=C2
Return: 23

Enquiry: Return reported growth inhibition. Input compound: CCOC(=O)C(/C=N\C(=S)Nc1ccc(Cl)c(Cl)c1)=C(/O)c1ccccc1
Return: 35

Enquiry: Return reported growth inhibition. Input compound: Cc1cc(-c2ccccc2)c(C)c(-c2ccccc2)c1-c1ccccc1
Return: 13

Enquiry: Return reported growth inhibition. Input compound: CN1C(OCc2ccccc2)c2c(ccc3c2OCO3)C2C=Cc3cc4c(cc3C21)OCO4 (configuration not stated)
Return: 99

Enquiry: Return reported growth inhibition. Input compound: Oc1cc(C(c2ccccc2)c2ccccc2)c2ccccc2c1O
Return: 2

Enquiry: Return reported growth inhibition. Input compound: Cc1ccc(C)c2[nH]c(-c3ccccc3)cc12
Return: 99

Enquiry: Return reported growth inhibition. Input compound: Cn1c(=O)cc2c3c(ccc(C(=O)O)c31)C(=O)c1ccccc1-2
Return: 62

Enquiry: Return reported growth inhibition. Input compound: c1ccc2[nH]c(CN(CCN(Cc3nc4ccccc4[nH]3)Cc3nc4ccccc4[nH]3)Cc3nc4ccccc4[nH]3)nc2c1
Return: 95

Enquiry: Return reported growth inhibition. Input compound: O=C(Nc1cccc2ccccc12)OCC1CCc2ccccc2C1 (configuration not stated)
Return: 29

Enquiry: Return reported growth inhibition. Input compound: COc1ccc(OP2(Oc3ccc(OC)cc3)=NP(Oc3ccc(OC)cc3)(Oc3ccc(OC)cc3)=NP(Oc3ccc(OC)cc3)(Oc3ccc(OC)cc3)=NP(Oc3ccc(OC)cc3)(Oc3ccc(OC)cc3)=N2)cc1
Return: 35

Enquiry: Return reported growth inhibition. Input compound: CCCCOC(=O)c1cnc[nH]c1=O
Return: 14

Enquiry: Return reported growth inhibition. Input compound: COc1ccc(-c2[nH]c(-c3ccc(OC)cc3)c(-c3ccccn3)c2-c2ccccn2)cc1
Return: -7

Enquiry: Return reported growth inhibition. Input compound: O=C1C(=O)c2ccccc2C(O)=C1C(c1ccccc1)c1ccccc1
Return: 83

Enquiry: Return reported growth inhibition. Input compound: [O-]c1c(-c2cccc3ccccc23)sc(-c2cccc3ccccc23)[n+]1-c1ccccc1
Return: 93

Enquiry: Return reported growth inhibition. Input compound: Cc1nc(N)nn1C
Return: -2

Enquiry: Return reported growth inhibition. Input compound: CCOC(=O)C(C)(C)Oc1ccc2c(=O)cc(-c3ccccc3)oc2c1
Return: 97

Enquiry: Return reported growth inhibition. Input compound: O=[N+]([O-])c1ccccc1NC1CCN(CCCC2(c3ccc(F)cc3)OCCO2)CC1
Return: 97

Enquiry: Return reported growth inhibition. Input compound: CC(C)(C)c1ccc(Sc2ncnc3ccccc23)cc1
Return: 90

Enquiry: Return reported growth inhibition. Input compound: CCN(CC)CCOc1ccc(NC(=S)Nc2ccc(OCC(C)C)cc2)cc1
Return: 47
